This collection of values is drawn from patent US20250027068.

- ASSAYED_SYSTEM: pooled human IgG (human IgG1,2,3 and 4)
Please go through the items and note down their Enzyme Activity Endpoint Assay (purified): IgG.
Answers are plain numbers, in ng/µL.

{"PROTEIN": "PRT-447 (protein) MVTSVWTKGVTPPTDFIKGEDVFHAPYKAGQGWYDITKAFDGGDDLLCGAATAGNMLHWWFDQNKDQIEAYLKEHPEKQKINFNGEQMFDVKEAIDTKDDQTNSELFNYFKEKAFPYLSTKHLGVFPDHVLDMFINGYRLSLTNHGPTPVKEGSKDPRGGIFDAVFTRGDQSKLLTSRHDFKEKTLKEISDLIKQELTEGKALALSHTYANVRINHVINLWGADFDSNGNLEAIYVTDSDSNASIGMKKYFVGVNSAGKVAISAKEIEDDNIGAQVLGLFTLSTGQDIWNQTNLEHHHHHH", "NUMBER": 445}
{"PROTEIN": "PRT-342 (protein) MTITSVWTKGVTPPTPEDFRENNEDVLHAPYLANQGWYDITKAFDGKDNLLCGAATAGNMLHWWFDQNKEEIERYLKKHPEKQKIIFGNQELFDVKAAIDTKDSQTNSKLFNYFRDKAFPNLSARQLGVMPDLVLDMFINGYYLNLGKTQSTDVNRPYQDKDKRGGIFDAVFTRGDQTTLLTARHDLKNKGLNEISDLIKQELTEGKALALSHTYANVSINHVINLWGADFDAEGNLEAIYVTDSDANPSIGMKKYFVGRNAHGKVAISAKKIEGDNIGAQVLGLFTLSTGQDIWQKLS", "NUMBER": 206}
{"PROTEIN": "PRT-361 (protein) MSQTEDSESLQRLRDIEDFQAEKKKQNVVYTKWLDGVDVKDHDFRKIVDGNSAYYATPLLNGRGFYDINKDFNRDSDKCAAAVAANMFHYWLDRNRDNVDRFLRQNPEKHGIIELPDGQLKLSDFLNTYESDDGYRDKSKLFDFISENFNGPVWTDKLLDNYINGYAYNYKYGRTIEDPTKNTSKINFFKEVFNEKILTNNHSIRNQNEFSVLLIEALYTGKAIGLSYGPAGLRHSLGHIISVWGADLDADGNVVAIYVTDSDDKKLTIGDERVGLKRYKISTDDEGRLRLTAYEETHNTGGQIRGLWTLDTGKQAWADYFDKTEQTGTDQAEQ", "NUMBER": 130}

Next protein, please.
Which Enzyme Activity Endpoint Assay (purified): IgG value is on record for PRT-485 (protein) MVTSVWTKGVTPPANFTQGEDVFHAPYKANQGWYDITKTFNGKDNLLCGAATAGNMLHWWFDQNKDQIEAYLKEHPEKQKIIFNNQELFDLKAAIDTKDDQTNSKLFEYFKEKAFPYLSTKHLGVFPDHVLDMFINGYRLSLTNHGPTPVKEGSKDKRGGIFDAVFTRGVQSKLLTSRHDLKNKTLKEISDLIKQELTEGKALALSHTYANVRINHVINLWGADFDSNGNLEAIYVTDSDTNASIGMKKYFVGVNSAGKVAISAKEIEDDNIGAQVLGLFTLSTGQDIWNQTNLEHHHHHH ?
1400
